Measured values drawn from the supplement of paper PMC6555819 for this set.

- Test system: RARa:RXR (NR concentration 270 nM, RXRa partner concentration 90 nM)
- test name: PBM binding z-score (relative to random genomic background probes); higher = stronger binding; sequences stand for … in GC…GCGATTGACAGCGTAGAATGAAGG
readout name: PBM binding z-score

In [3]: df
Out[3]:
                             seq_text   result
0  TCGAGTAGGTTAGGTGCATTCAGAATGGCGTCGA  -0.0756

From here, focus on the item given below.
Prompt: Name the recorded PBM binding z-score for "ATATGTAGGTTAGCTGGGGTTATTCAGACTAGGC" .
Response: 3.11

====

- System: VDR homodimer (NR concentration 270 nM)
- test name: PBM binding z-score (relative to random genomic background probes); higher = stronger binding; sequences stand for … in GC…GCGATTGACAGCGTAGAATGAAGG
readout name: PBM binding z-score
Reply: number alone, nothing else.

Prompt: Return reported PBM binding z-score; argument: "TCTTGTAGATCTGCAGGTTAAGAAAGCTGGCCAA"
Response: -0.245

Prompt: State the recorded PBM binding z-score for this entry: "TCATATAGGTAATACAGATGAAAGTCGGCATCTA"
Response: 0.0563

Prompt: Which PBM binding z-score is listed for "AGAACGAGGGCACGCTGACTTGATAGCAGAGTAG" ?
Response: 0.649

Prompt: # PBM binding z-score lookup, item "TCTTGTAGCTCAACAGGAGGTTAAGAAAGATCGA"
Response: -0.327

Prompt: Which PBM binding z-score reading was recorded for the sequence "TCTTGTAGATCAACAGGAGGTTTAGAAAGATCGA" ?
Response: -0.584

Prompt: Bench note: what PBM binding z-score did "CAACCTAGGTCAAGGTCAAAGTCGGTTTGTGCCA" show?
Response: 4.12

Prompt: Value lookup for PBM binding z-score; key = "GCTCGCAGGCCATTTGGGTCACTCAATGACGGGC"
Response: 0.416

Prompt: For "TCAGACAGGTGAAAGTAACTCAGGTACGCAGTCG" , what is its reported PBM binding z-score?
Response: -0.0124

Prompt: Param item = "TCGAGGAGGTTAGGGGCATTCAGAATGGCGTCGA" ; retrieve measured PBM binding z-score.
Response: 1.07

====

Entries annotated with measured PBM binding z-score
- Test system: PPARg:RXRa IVT, anti-PPARg (NR concentration 270 nM, RXRa partner concentration 90 nM)
- test name: PBM binding z-score (relative to random genomic background probes); higher = stronger binding; sequences stand for … in GC…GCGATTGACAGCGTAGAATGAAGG
Keep it simple and answer with nothing but the number.

>>> print(df.to_string())
                             seq_text  quantitative_readout
0  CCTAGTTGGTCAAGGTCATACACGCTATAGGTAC                  3.11
1  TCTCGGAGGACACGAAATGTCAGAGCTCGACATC               -0.0738
2  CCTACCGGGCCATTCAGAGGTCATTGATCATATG                  1.62
3  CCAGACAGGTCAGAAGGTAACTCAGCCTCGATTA                  1.15

Prompt: Notebook entry, PPARg:RXRa IVT, anti-PPARg (NR concentration 270 nM, RXRa partner concentration 90 nM) assay: PBM binding z-score of "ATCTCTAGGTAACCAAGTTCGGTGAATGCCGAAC" = ?
Response: 2.93

Prompt: Entry "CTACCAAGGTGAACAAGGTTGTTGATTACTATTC" , system PPARg:RXRa IVT, anti-PPARg (NR concentration 270 nM, RXRa partner concentration 90 nM): what PBM binding z-score was measured?
Response: 2.42

Prompt: # get_value(readout= PBM binding z-score, system= PPARg:RXRa IVT, anti-PPARg (NR concentration 270 nM, RXRa partner concentration 90 nM)) for "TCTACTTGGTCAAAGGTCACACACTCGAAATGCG"
Response: 6.58

====

- Test system: PPARg:RXRa DBDmut IVT, anti-RXR (DBD mutation: RXRa K156A/R161A, NR concentration 270 nM, RXRa partner concentration 90 nM)
- test name: PBM binding z-score (relative to random genomic background probes); higher = stronger binding; sequences stand for … in GC…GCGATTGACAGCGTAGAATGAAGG
readout name: PBM binding z-score

Look over these answered cases.
>>> print(df.to_string())
                             seq_text  result
0  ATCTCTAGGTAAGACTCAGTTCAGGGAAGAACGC    1.95
1  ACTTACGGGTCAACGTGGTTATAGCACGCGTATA     3.4
2  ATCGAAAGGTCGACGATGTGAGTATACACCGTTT   0.505
3  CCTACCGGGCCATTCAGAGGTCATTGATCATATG   0.333
4  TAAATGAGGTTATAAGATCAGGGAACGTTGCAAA    2.84

Prompt: If you can, please state the reported PBM binding z-score value of "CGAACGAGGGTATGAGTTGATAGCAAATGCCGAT" .
Response: 0.876

Prompt: Please look up its PBM binding z-score: "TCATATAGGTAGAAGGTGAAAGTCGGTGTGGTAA"
Response: 3.5

====

- Tested on: PPARg:RXRa (NR concentration 180 nM, RXRa partner concentration 90 nM)
- test name: PBM binding z-score (relative to random genomic background probes); higher = stronger binding; sequences stand for … in GC…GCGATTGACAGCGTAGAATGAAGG
Records here are stratified by PBM binding z-score; strata: low interval: < 0.8; middle interval: ≥ 0.8 and < 2; high interval: ≥ 2

# example entries with known answers
>>> df
                             seq_text  classification
0  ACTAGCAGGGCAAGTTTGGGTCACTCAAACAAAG    low interval
1  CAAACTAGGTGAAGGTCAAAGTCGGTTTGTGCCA   high interval
2  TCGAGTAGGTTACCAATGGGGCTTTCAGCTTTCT    low interval
3  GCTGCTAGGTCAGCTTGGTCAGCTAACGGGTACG    low interval
4  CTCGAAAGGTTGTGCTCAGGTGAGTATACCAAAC    low interval

Prompt: Hello team, could you let me know which band the following sequence falls into: "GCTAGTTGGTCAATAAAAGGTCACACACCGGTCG"
Response: high interval

Prompt: Entry "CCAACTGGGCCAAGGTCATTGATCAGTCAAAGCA" belongs to which category?
Response: high interval

====

Parameter PBM binding z-score: see the listing below.
- System: RARa:RXR (NR concentration 270 nM, RXRa partner concentration 90 nM)
- test name: PBM binding z-score (relative to random genomic background probes); higher = stronger binding; sequences stand for … in GC…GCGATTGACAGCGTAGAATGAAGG
Please reply with the value in numeric form only.

In [3]: df
Out[3]:
                             seq_text  quantitative_readout
0  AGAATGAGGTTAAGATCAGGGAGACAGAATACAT                  1.95

Prompt: PBM binding z-score for "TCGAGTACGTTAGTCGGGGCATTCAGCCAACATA" ?
Response: -0.134

Prompt: # get_value(readout='PBM binding z-score', item= "TCATATAGGTAATACAGGTGAAAGTGGGCATCTA" )
Response: 1.35

Prompt: Entry under review: "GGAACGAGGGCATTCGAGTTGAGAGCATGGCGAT" . Reported PBM binding z-score?
Response: 0.847

====

- System: LXRa:RXRa (NR concentration 270 nM, RXRa partner concentration 90 nM)
- test name: PBM binding z-score (relative to random genomic background probes); higher = stronger binding; sequences stand for … in GC…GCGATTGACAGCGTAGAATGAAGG
Listed below: PBM binding z-score values for each entry.
Response field accepts a number only; no unit should be typed.

>>> df
                             seq_text  quantitative_readout
0  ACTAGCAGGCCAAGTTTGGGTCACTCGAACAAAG                0.0952
1  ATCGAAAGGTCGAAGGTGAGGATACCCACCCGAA                  3.68
2  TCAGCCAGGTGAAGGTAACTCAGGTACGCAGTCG                  1.19
3  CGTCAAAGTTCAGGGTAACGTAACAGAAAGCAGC                  3.51

Prompt: State the recorded PBM binding z-score for this entry: "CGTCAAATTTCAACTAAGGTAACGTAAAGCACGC"
Response: 0.429

====

Parameter PBM binding z-score: see the listing below.
- Tested on: PPARg:RXRa 90nM:30nM, anti-RXR (NR concentration 90 nM, RXRa partner concentration 30 nM)
- test name: PBM binding z-score (relative to random genomic background probes); higher = stronger binding; sequences stand for … in GC…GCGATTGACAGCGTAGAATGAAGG
// return a plain number; no unit text

Worked examples follow.
>>> df
                             seq_text  quantitative_readout
0  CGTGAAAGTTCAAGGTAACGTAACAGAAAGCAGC                  3.03
1  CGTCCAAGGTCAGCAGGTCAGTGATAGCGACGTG                  3.05

Next, consider the following sequence.
Prompt: # lookup: PBM binding z-score of "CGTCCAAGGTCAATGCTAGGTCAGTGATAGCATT"
Response: 3.05
